Target: SfurOBP11 (Sogatella furcifera, UniProt V5T6E3)
Sequence (V5T6E3 entry or part of it): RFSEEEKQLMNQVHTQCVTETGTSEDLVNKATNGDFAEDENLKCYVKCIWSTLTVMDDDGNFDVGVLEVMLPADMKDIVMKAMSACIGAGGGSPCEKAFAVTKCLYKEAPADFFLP
Experiment: biochemical
Format: binding
Settings: ligand concentration 6, replicate 1
test-readout: Fluorescence intensity, fluorescence competitive binding assay, OBP11
Respond using a number only.

Example entries and their recorded answers appear below.
[[record]]
compound = "C=C(C)C1CC=C(C)CC1 (single isomer, unassigned; (+)) [(+)-limonene]"
measured_result = 20124

[[record]]
compound = "CCCCCCCCCCCCCCCCCC"
measured_result = 26414

[[record]]
compound = "CC(C)COC(=O)CCCCC(=O)OCC(C)C [DA(diisobutyl adipate)]"
measured_result = 26005


[Q] Fill in the blank: the reported Fluorescence intensity, fluorescence competitive binding assay, OBP11 of CCCCCCCCCCCCCCCC is ____.
[A] 20973

[Q] Fill in the blank: the reported Fluorescence intensity, fluorescence competitive binding assay, OBP11 of CCCCCCC=CCO is ____.
[A] 34140

[Q] Fill in the blank: the reported Fluorescence intensity, fluorescence competitive binding assay, OBP11 of CCCCCCCCCCCCO is ____.
[A] 24952

----------
Molecular target: SfurOBP11 (Sogatella furcifera)
Assay: biochemical
Type: binding
Conditions: ligand concentration 12, replicate 1
Attribute: Fluorescence intensity, fluorescence competitive binding assay, OBP11
Respond using a number only.

Example entries and their recorded answers appear below.
[[record]]
compound = "CCCCCCCCCCCCCCCC(=O)OC [MH(methyl hexadecanoate)]"
measured_result = 42172

[[record]]
compound = "CCCCCCCCCCCCCC [n-tetradecane]"
measured_result = 30511

[[record]]
compound = "c1ccc2ccccc2c1 [naphthalene]"
measured_result = 30215


[Q] Fill in the blank: the reported Fluorescence intensity, fluorescence competitive binding assay, OBP11 of O=C(c1ccccc1)c1ccccc1 [benzophenone] is ____.
[A] 17719

[Q] Fill in the blank: the reported Fluorescence intensity, fluorescence competitive binding assay, OBP11 of CC1=CC[C@@H](C(C)(C)O)CC1 [α-terpineol] is ____.
[A] 23153

[Q] Fill in the blank: the reported Fluorescence intensity, fluorescence competitive binding assay, OBP11 of CCCCCCCCC=O [nonanal] is ____.
[A] 26945

[Q] Fill in the blank: the reported Fluorescence intensity, fluorescence competitive binding assay, OBP11 of CC/C=C\CCO [(Z)-3-hexenol] is ____.
[A] 17455

[Q] Fill in the blank: the reported Fluorescence intensity, fluorescence competitive binding assay, OBP11 of CCCCCCCCCCCCC=O [tridecanal] is ____.
[A] 26676

[Q] Fill in the blank: the reported Fluorescence intensity, fluorescence competitive binding assay, OBP11 of CC(C)COC(=O)CCCCC(=O)OCC(C)C [DA(diisobutyl adipate)] is ____.
[A] 20499

[Q] Fill in the blank: the reported Fluorescence intensity, fluorescence competitive binding assay, OBP11 of CCCCCCCC=O [octanal] is ____.
[A] 25318

[Q] Fill in the blank: the reported Fluorescence intensity, fluorescence competitive binding assay, OBP11 of O=Cc1ccccc1 [benzaldehyde] is ____.
[A] 22377

[Q] Fill in the blank: the reported Fluorescence intensity, fluorescence competitive binding assay, OBP11 of Cc1cc(C(C)(C)C)c(O)c(C(C)(C)C)c1 [BHT(2,6-di-tert-butyl-4-methylphenol)] is ____.
[A] 18948
